System: Saccharomyces cerevisiae
Assay: protein stability index of tFT-peptide fusion (C-terminal peptide) (PSI (0-1 scale)); higher = more stable (slower turnover)
Conditions: genetic background: wild type; temperature: 30 C
METRIC: protein stability index

1) VKYPALMITGFW    0.669
2) GGRVKPRGVGVG    0.648
3) GRSCSSWSSWGF    0.716
4) AFKRVFWALWWM    0.36
5) GYTSGEEGAVTA    0.624
6) FRGPRSFRGVVW    0.757
7) PPAPPFPAPPPR    0.628
8) KRTKKKKKMELE    0.719
9) FLLAIVRGVWLA    0.176
10) KKLGLINITIRV    0.535
11) GMSFNVPLWGSI    0.69
12) SYGDPSTTRLSP    0.701
13) LQSYIFSVRGIS    0.533
14) PPSKRSKKPFRI    0.698
15) GRKKKRREEKDT    0.609
16) RICACHGIRFIP    0.444
17) YVLSVKEGTNLP    0.709
18) VGQPWRLHFILR    0.648
19) LIRRTECPRSTS    0.678

---

Test system: Saccharomyces cerevisiae
Test: protein stability index of tFT-peptide fusion (C-terminal peptide) (PSI (0-1 scale)); higher = more stable (slower turnover)
Conditions: genetic background: das1 deletion; temperature: 30 C
Label Met when protein stability index >= 0.4; otherwise Not met.

1) SYRFFLFLAVFV    Met
2) PAMPTEPKSSSG    Met
3) GCLFASWPLAVC    Not met
4) RLRCRVLQWVWG    Met
5) VLVVVAFVALPR    Not met
6) WLFRCFLFVVGG    Not met
7) LRVGVRSWGGKW    Met
8) VVVYWGSLKRVC    Met
9) VIVKSRTTLYIS    Met
10) SRICRTIIQLKQ    Met
11) LCSVVIFCLVWG    Not met
12) FHICTQLIFITC    Not met
13) VRNYWKYVVIFP    Met
14) LLGSRFVLIRSL    Met
15) WRVRFRLLAGFC    Not met
16) RLICFFSMYLRF    Not met

---

Tested on: Saccharomyces cerevisiae
Assay: protein stability index of tFT-peptide fusion (C-terminal peptide) (PSI (0-1 scale)); higher = more stable (slower turnover)
Details: genetic background: das1 deletion; temperature: 30 C
// reported protein stability index per item
METRIC: protein stability index

1. DFRGVSVIRHQV    0.64
2. CLVFGFLFFIVI    0.338
3. RVRNSQVVAVVG    0.354
4. CMLGVVRVLVWF    0.129
5. PSPRLSLPPRLP    0.677
6. WSFYVVGRLLVN    0.287
7. RPCRPLIAAFVF    0.415
8. LCVWRRAIVWVG    0.352
9. RQILYYRERFIP    0.634
10. WFFLFGFVFFFR    0.352
11. SLVLLVASVTGS    0.385
12. LFFFLVWSLSVF    0.0353
13. SRRSIGAYLFVS    0.635
14. GRWAFFTWLRWS    0.62
15. TTGLLPSAYIWS    0.649
16. HVCKLAMFQWYF    0.609
17. PVHARYCSLKWA    0.633
18. CEVLVVVMCLWG    0.224
19. FLACYSSFLFVS    0.492

---

Tested on: Saccharomyces cerevisiae
Test: protein stability index of tFT-peptide fusion (C-terminal peptide) (PSI (0-1 scale)); higher = more stable (slower turnover)
Settings: genetic background: wild type; temperature: 30 C
// reported protein stability index per item
METRIC: protein stability index

1. RGCFVLRKTHLL    0.254
2. PRARHSVPNIQS    0.694
3. YLSFYRLLDSST    0.664
4. APLPPLRPPPSA    0.687
5. PPLARPPLPAPF    0.7
6. VPRSLYSVLRLA    0.2
7. VSPRYRDRPGPS    0.692
8. LIPLVFAPSLVL    0.769
9. ERAGPGGARRVD    0.696
10. LLPPPPLPPPRP    0.67
11. VVGRWGWACCRP    0.681
12. RPPLLPPLDAPS    0.713
13. KKKKQKIRKVKK    0.725
14. NVMVRIGKGGVD    0.666
15. GGLIWRHGVGRG    0.692
16. RRSRFSGACLLM    0.773
17. GVVSSSIFDLWS    0.746
18. GCWAGLGAPGVS    0.71
19. VPPHLLAPDPRL    0.716

---

// reported protein stability index per item
Tested on: Saccharomyces cerevisiae
Assay: protein stability index of tFT-peptide fusion (C-terminal peptide) (PSI (0-1 scale)); higher = more stable (slower turnover)
Details: genetic background: das1 deletion; temperature: 30 C
METRIC: protein stability index

1) AFIFGNYKDILT [RGA1 C-terminal 12 aa]    0.755
2) KCQTKHTFTGLI [YGR269W C-terminal 12 aa]    0.695
3) KGPSKTALLSKK [PKP1 C-terminal 12 aa]    0.707
4) GKWYCDDCKKKL [PHO23 C-terminal 12 aa]    0.729
5) GEKKQKGQALQF [RPL42A C-terminal 12 aa]    0.68
6) ASSIYIIFDYEN [BUB3 C-terminal 12 aa]    0.656
7) VVCFVSYQKLSS [OPI9 C-terminal 12 aa]    0.635
8) QVYYELGQIPFE [MET18 C-terminal 12 aa]    0.738
9) ISSKSIPSVDDK [YIL071W-A C-terminal 12 aa]    0.677
10) LMAKRFQTGSLK [RTS3 C-terminal 12 aa]    0.703
11) RMHRRLPFPTLN [YJR142W C-terminal 12 aa]    0.699
12) LSDKNPEFKYMY [TNA1 C-terminal 12 aa]    0.686
13) TSSQYEGVALGM [EAF3 C-terminal 12 aa]    0.695
14) IDEMYRGGISMN [AIM32 C-terminal 12 aa]    0.693
15) ASDEPSRKKNRR [SSN3 C-terminal 12 aa]    0.743
16) FYLHGNGSDNLF [YGR153W C-terminal 12 aa]    0.716
17) ALNRSAIIKDDK [DDP1 C-terminal 12 aa]    0.703
18) LDYLSSYINRRI [FLP1 C-terminal 12 aa]    0.706
19) EIIRVGPQESII [MRP49 C-terminal 12 aa]    0.723
20) EVVKRYLKMRQD [PUP3 C-terminal 12 aa]    0.7
21) ANFNDFYDAFYN [RSC30 C-terminal 12 aa]    0.732
22) VRKLSFHVYEDE [ACM1 C-terminal 12 aa]    0.691
23) SRFRTNRLKGDQ [YNL042W-B C-terminal 12 aa]    0.699
24) TCLTGEVIFPPR [NPC2 C-terminal 12 aa]    0.711
25) RKTIRRDLASLV [TMA108 C-terminal 12 aa]    0.691

---

// reported protein stability index per item
Test system: Saccharomyces cerevisiae
Assay: protein stability index of tFT-peptide fusion (C-terminal peptide) (PSI (0-1 scale)); higher = more stable (slower turnover)
Settings: genetic background: doa10 deletion; temperature: 30 C
METRIC: protein stability index

1) VWSWFVIYFFFC    0.366
2) SYVRLDLFFFLG    0.46
3) YCDPSLIWLYLM    0.177
4) RLFVRIQLSLLF    0.33
5) LRMMLLVTIILE    0.0875
6) GGFHWCPSASRG    0.678
7) FPFVYRSVLLFF    0.106
8) RMTFFGFTVKML    0.196
9) SQIALIQYFHIL    0.0937
10) WFGCSTVWVRVQ    0.0767
11) RLCLLLCCRLWL    0.461
12) SRICRTIIQLKQ    0.107
13) LGWFVDFVFVVW    0.244
14) SLASPPPLLILR    0.607
15) TLDWKFGWGGIG    0.569
16) YFICLSLVLFSY    0.202
17) FGGICFAVLLCR    0.258
18) VLCMSIFIVFGI    0.177
19) PSPRLSLPPRLP    0.71

---

// reported protein stability index per item
Tested on: Saccharomyces cerevisiae
Assay: protein stability index of tFT-peptide fusion in deletion strain of DOA10 (PSI (0-1 scale)); higher = more stable (slower turnover)
METRIC: protein stability index

1. RVTRLDAIYFRD    0.72
2. AITLPMCPILLR    0.619
3. RVTRLDAIYCRI    0.696
4. CLVSLPILLFFRD    0.594
5. AITLYMCPLLLR    0.628
6. VSLRVLLPLYFR    0.611
7. GTYMCSVGCWFR    0.675
8. CLVSLPILLFFRP    0.563
9. RSLRVLLPLYFRS    0.644
10. CLVSLPDLLFFR    0.709
11. NSLRVLLPLYFR    0.662
12. GLYMCSVGCCFR    0.651
13. AITLPMCPLLLRL    0.563
14. RVARLDAIYFRI    0.663
15. RVTRLDGIYFRI    0.567
16. CLVSLPGLLFFR    0.656
17. CNVSLPILLFFR    0.642
18. AITLTMCPLLLR    0.667
19. GEYMCSVGCWFR    0.667
20. CLVSLPILKFFR    0.666
21. RSLCVLLPLYFR    0.616
22. RSLHVLLPLYFR    0.634
23. RVTRLDCIYFRI    0.647
24. ALTLPMCPLLLR    0.646
25. CLVSLPILLFFRH    0.577
26. RSLRVLQPLYFR    0.685
27. AITLPDCPLLLR    0.711
28. GLYMCSVGCWFRI    0.455
29. RVTRLDAIYFRR    0.708
30. RSLIVLLPLYFR    0.597
31. CLVSLPILLFFA    0.346
32. AIGLPMCPLLLR    0.653
33. GPYMCSVGCWFR    0.667
34. RVTRLDAIVFRI    0.693
35. RVTRLDAIYFRM    0.674
36. RVTRYDAIYFRI    0.603
37. AITLPMCPLLLP    0.675
38. SVTRLDAIYFRI    0.716
39. RVTRLDASYFRI    0.715
40. GLYECSVGCWFR    0.678
41. CWVSLPILLFFR    0.54
42. HITLPMCPLLLR    0.657
43. GLYMCSVGCWFRC    0.433
44. AITLPMCPNLLR    0.672
45. CLVSLPILLFLR    0.564
46. GLYMCSVGCWFRA    0.44
47. RVTRLDAIYFRC    0.66
48. GLYMCTVGCWFR    0.527
49. AITLPMCPLCLR    0.702
50. GLYWCSVGCWFR    0.646
51. CLVSLPHLLFFR    0.67
52. CLRSLPILLFFR    0.619
53. RSLRVLLPLYFG    0.591
54. RVTRLDAIHFRI    0.7
55. AITLPMCPLWLR    0.695
56. CLVSLPILYFFR    0.605
57. RVTRFDAIYFRI    0.645
58. RVTRNDAIYFRI    0.694
59. GLYMCSVHCWFR    0.453
60. RSLRVLLALYFR    0.552
61. RSLRVLLPLQFR    0.635
62. RVTRLDHIYFRI    0.717
63. GLYMCSVGCWFA    0.371
64. CLVNLPILLFFR    0.597
65. CLISLPILLFFR    0.552
66. AVTRLDAIYFRI    0.696
67. RVTRLDVIYFRI    0.649
68. RSLRVLLPLGFR    0.682
69. ELYMCSVGCWFR    0.651
70. GLYMGSVGCWFR    0.704
71. AITLPMCPTLLR    0.678
72. RSLRVFLPLYFR    0.693
73. RSLRQLLPLYFR    0.68
74. GLYMCSVFCWFR    0.365
75. RVTRLDAIYFRIM    0.129
76. WSLRVLLPLYFR    0.636
77. WVTRLDAIYFRI    0.62
78. RSDRVLLPLYFR    0.696
79. AITLPMNPLLLR    0.685
80. GLSMCSVGCWFR    0.671
81. RKLRVLLPLYFR    0.668
